# TARGET UNDER TEST: human GLP-1 receptor (human, UniProt P43220 24-463)
# ASSAY SUMMARY: cell-based or functional assay
Bridges are numbered along the chain shown (N, C = ends). Where no end group is shown, it is not given here. [ ]: non-standard residue; d: D form. The star is where a group is joined. Acetyl(2-(4-imidazolyl)) = O=C(Cc1c[nH]cn1)*; Aib = CC(C)(N)C(=O)O
I'd appreciate it if you marked entries Fulfilled when In vitro activity (%) vs. GLP-1, cAMP EC50 is lower than 20% and Not fulfilled when it is not.

[[record]]
binder = "[Acetyl(2-(4-imidazolyl))]GQGTFTSDLSKQMDSERAREFIEWLKNTGPSSGAPPPSHG [triple agonist of SEQ ID NO: 18]"
category_label = "Fulfilled"

[[record]]
binder = "Y[Aib]QGTFTSDYSKALDEKAAKDFVNWLLDQHPSSGQPPPSC (bridge 16-20; ends not checked) [triple agonist of SEQ ID NO: 102]"
category_label = "Not fulfilled"

[[record]]
binder = "Y[Aib]QGTFTSDYSKCLDEKRAKDFVQWLLDHHPSSGQPPPS (bridge 16-20; ends not checked) [triple agonist of SEQ ID NO: 70]"
category_label = "Fulfilled"

[[record]]
binder = "Y[Aib]QGTFTSDYSKYLDEKRAKEFVQWLLDCHPSSGQPPPS (bridge 16-20; ends not checked) [triple agonist of SEQ ID NO: 97]"
category_label = "Fulfilled"

[[record]]
binder = "HGQGTFTSDCSKQLDGQAAQEFVAWLLAGGPSSGAPPPS [triple agonist of SEQ ID NO: 44]"
category_label = "Fulfilled"

[[record]]
binder = "Y[Aib]QGTFTSDYSKYLDECRAKDFVQWLLDHHPSSGQPPPS (bridge 16-20; ends not checked) [triple agonist of SEQ ID NO: 66]"
category_label = "Fulfilled"

[[record]]
binder = "H[Aib]QGTFTSDYSKCLDEKRAKEFVQWLLDHHPSSGQPPPS (bridge 16-20; ends not checked) [triple agonist of SEQ ID NO: 65]"
category_label = "Not fulfilled"

[[record]]
binder = "H[Aib]QGTFTSDYSKYLDEKRAQEFVCWLLAQKGKKNDWKHNIT [triple agonist of SEQ ID NO: 28]"
category_label = "Fulfilled"

[[record]]
binder = "[Acetyl(2-(4-imidazolyl))][Aib]QGTFTSDYSIAMDEIACKDFVNWLLNTK (bridge 16-20; ends not checked) [triple agonist of SEQ ID NO: 61]"
category_label = "Not fulfilled"

[[record]]
binder = "H[Aib]QGTFTSDVSKYLDGQAAKEFVAWLLKGC (ends and bridges not checked) [triple agonist of SEQ ID NO: 7]"
category_label = "Fulfilled"

[[record]]
binder = "{Acetyl(2-(4-imidazolyl))}-[Aib]QGTFTSDYSKYLDEKRQKEFVQWLLNTC (bridge 15-19) [triple agonist of SEQ ID NO: 81]"
category_label = "Fulfilled"

[[record]]
binder = "{Acetyl(2-(4-imidazolyl))}-[Aib]QGTFTSDYSICMDEIHQKDFVNWLLNTK (bridge 15-19) [triple agonist of SEQ ID NO: 49]"
category_label = "Not fulfilled"

[[record]]
binder = "{Acetyl(2-(4-imidazolyl))}-[Aib]QGTFTSDYSKYLDEKRQKEFVNWLLAQKC (bridge 15-19) [triple agonist of SEQ ID NO: 93]"
category_label = "Fulfilled"

[[record]]
binder = "H[Aib]EGTFTSDYSIAMDEIHQKDFVDWLLAEC (bridge 16-20; ends not checked) [triple agonist of SEQ ID NO: 54]"
category_label = "Not fulfilled"

[[record]]
binder = "H[Aib]QGTFTSDVSKYLDGQAAQEFVAWLLKGC [triple agonist of SEQ ID NO: 8]"
category_label = "Fulfilled"

